Cited source for all entries: ChEMBL document CHEMBL3627690

Measured Ki of individual entries
target: Mitogen-activated protein kinase kinase kinase 12 (Homo sapiens, UniProt Q12852)
Sequence (Q12852 whole entry): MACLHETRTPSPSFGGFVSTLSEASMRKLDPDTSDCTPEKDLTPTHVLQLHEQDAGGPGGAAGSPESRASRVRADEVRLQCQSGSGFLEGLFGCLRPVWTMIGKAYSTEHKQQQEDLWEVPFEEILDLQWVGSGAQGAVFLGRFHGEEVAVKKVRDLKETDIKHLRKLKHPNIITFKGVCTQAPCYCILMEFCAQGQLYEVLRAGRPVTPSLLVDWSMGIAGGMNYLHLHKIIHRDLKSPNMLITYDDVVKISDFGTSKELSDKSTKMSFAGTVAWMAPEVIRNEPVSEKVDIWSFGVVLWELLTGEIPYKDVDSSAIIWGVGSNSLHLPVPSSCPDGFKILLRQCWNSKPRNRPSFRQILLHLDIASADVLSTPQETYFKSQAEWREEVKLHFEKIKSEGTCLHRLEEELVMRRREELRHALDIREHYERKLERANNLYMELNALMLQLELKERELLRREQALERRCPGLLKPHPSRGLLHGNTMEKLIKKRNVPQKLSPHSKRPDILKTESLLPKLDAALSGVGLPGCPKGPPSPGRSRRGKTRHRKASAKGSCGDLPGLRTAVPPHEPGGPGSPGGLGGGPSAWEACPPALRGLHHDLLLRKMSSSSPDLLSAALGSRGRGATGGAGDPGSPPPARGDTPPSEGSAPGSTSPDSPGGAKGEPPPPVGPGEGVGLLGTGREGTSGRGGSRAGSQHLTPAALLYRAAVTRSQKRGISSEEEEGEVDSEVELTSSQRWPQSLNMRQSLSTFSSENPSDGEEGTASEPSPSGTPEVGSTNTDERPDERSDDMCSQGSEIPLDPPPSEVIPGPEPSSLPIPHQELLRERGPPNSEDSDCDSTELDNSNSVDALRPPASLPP
experiment_notes: Inhibition of N-terminally GST- tagged human DLK catalytic domain (1 to 520 amino acids) using N-terminally HIS-tagged MKK4 K131M as substrate incubated for 60 mins by TR-FRET assay
Quick note: give the figure in nM, leave out the unit.

N#Cc1ccnc(Nc2cc(C3CCN(C4COC4)CC3)n(C3CCOCC3)n2)c1; 593
N#Cc1ccnc(Nc2cc(C3CCOC3)n(C3CCCC3)n2)c1 (racemic); 54
CC(C)n1nc(Nc2cc(C#N)ccn2)cc1C1CCNCC1; 160
CC(C)n1nc(Nc2cc(C(F)(F)F)ccn2)cc1C1CCNCC1; 145

Summary line: `N#Cc1ccnc(Nc2cc(C3CN(C4COC4)C3)n(C3CCCC3)n2)c1` , Mitogen-activated protein kinase kinase kinase 12 (Homo sapiens, UniProt Q12852), reported Ki = 48

Record N#Cc1ccnc(Nc2cc(C3CCN(C4COC4)CC3)n(C3CCC(F)(F)C3)n2)c1 (racemic) has Mitogen-activated protein kinase kinase kinase 12 (Homo sapiens, UniProt Q12852) Ki equal to 48

Simply: N#Cc1ccnc(Nc2cc(C3CCN(C4COC4)CC3)n(C3CCOC3)n2)c1 (racemic) , Mitogen-activated protein kinase kinase kinase 12 (Homo sapiens, UniProt Q12852), Ki = 378

Param item: `N#Cc1ccnc(Nc2cc(C3CCN(C4COC4)CC3)n(CC3CCC3)n2)c1` ; param system: Mitogen-activated protein kinase kinase kinase 12 (Homo sapiens, UniProt Q12852); output Ki: 133
